Test system: Zika virus NS2B-NS3 protease (unlinked complex)
Experiment: Primary screen GU Rhodamine qHTS for Zika virus inhibitors: Unlinked NS2B-NS3 protease assay (AID 1347159); also: nearly all actives have a fitted effect of over 60% in size
Settings: Recombinant ZIKV NS2B-NS3 protease, Rhodamine110 substrate fluorescence; series mostly up to 107 µM
Inconclusive results are not listed. Active and inactive are the calls of the source. Calls follow the shape of the dose curve; as a rule, active = well fitted inhibition curve with a large enough effect; inconclusive = small, poorly fitted or top-dose-only effect; inactive = no such curve, though single readings can be large or run the other way.
measured quantity: outcome

Consider the following illustrative entries.
COc1ccc2cc(C(C)C(=O)Oc3ccc(C(N)=S)cc3)ccc2c1 (stereo unspecified) = inactive
OCC(CO[C@@H]1O[C@H](CO)[C@@H](O)[C@H](O)[C@H]1O)c1ccc2c(c1)OCO2 (stereo partly specified) = inactive
CC(=O)c1ccc(O[C@@H]2O[C@H](CO)[C@@H](O)[C@H](O)[C@H]2O)cc1 = inactive
C=CC(=O)Nc1cc(Nc2ncc(Cl)c(-c3c[nH]c4ccccc34)n2)c(OC)cc1N(C)CCN(C)C = inactive
C[C@H]1Oc2cc(cnc2N)-c2c(nn(C)c2C#N)CN(C)C(=O)c2ccc(F)cc21 = inactive

Now turn to the next compound.
Request: # return recorded outcome for input CCOc1cc(C)c(Cl)cc1S(=O)(=O)n1cnc2ccccc21
Result: inactive
